Where these numbers come from: patent US9353090B2

Experiment: physchem
Settings: pH 6.8, aqueous buffer, kinetic from dmso stock, Solubility (pH 6.8)
yes (1) means recorded solubility at 24 h is 80 µg/mL or above; no (0) means it is below 80 µg/mL.

INSERT INTO results (mol, qualitative_label) VALUES
  ('COC[C@H]1N(c2nc(-c3cccc(C)c3OCc3cc(C)c4c(c3)CCN(C3COC3)C4)cs2)C[C@@H]2C[C@@]21C(=O)O', 'no (0)'),
  ('CO[C@H]1CN(c2nc(-c3cccc(C)c3OCc3ccc4c(c3C)CCN(C3CCOCC3)C4)cs2)CC[C@H]1C(=O)O', 'no (0)'),
  ('CCO[C@@H]1CN(c2cccc(-c3cccc(C)c3OCc3ccc4c(c3C)CCN(C3CCOCC3)CC4)n2)CC[C@@H]1C(=O)O', 'yes (1)'),
  ('Cc1c(COc2ccccc2-c2csc(N3CC[C@@]4(C(=O)O)C[C@H]4C3)n2)ccc2c1CCN(C1CCOCC1)C2', 'no (0)'),
  ('CO[C@@H]1CN(c2nc(-c3cc(F)cc(C)c3OCc3ccc4c(c3C)CCN(C3COC3)CC4)cs2)CC[C@@H]1C(=O)O', 'no (0)'),
  ('COC[C@H]1N(c2cccc(-c3cccc(C)c3OCc3ccc4c(c3)[C@H](C)CN(C3CCOCC3)CC4)n2)C[C@@H]2C[C@@]21C(=O)O', 'yes (1)');
